Every entry's value here was drawn from patent US9056874B2.

Molecular target: factor B (Homo sapiens)
Test: factor B inhibition assay of Biological Example 1
Format: biochemical
Set-up: CVF-Bb complex prepared from purified cobra venom factor (1 μM), recombinant human complement factor B; made in house; host or cells: drosophila cells (factor B); E. coli (factor D used to form the complex)
Conditions: IC50 (nM), assay of Biological Example 1 (Table 1)
Sequence (P00751 260-764 limits assumed): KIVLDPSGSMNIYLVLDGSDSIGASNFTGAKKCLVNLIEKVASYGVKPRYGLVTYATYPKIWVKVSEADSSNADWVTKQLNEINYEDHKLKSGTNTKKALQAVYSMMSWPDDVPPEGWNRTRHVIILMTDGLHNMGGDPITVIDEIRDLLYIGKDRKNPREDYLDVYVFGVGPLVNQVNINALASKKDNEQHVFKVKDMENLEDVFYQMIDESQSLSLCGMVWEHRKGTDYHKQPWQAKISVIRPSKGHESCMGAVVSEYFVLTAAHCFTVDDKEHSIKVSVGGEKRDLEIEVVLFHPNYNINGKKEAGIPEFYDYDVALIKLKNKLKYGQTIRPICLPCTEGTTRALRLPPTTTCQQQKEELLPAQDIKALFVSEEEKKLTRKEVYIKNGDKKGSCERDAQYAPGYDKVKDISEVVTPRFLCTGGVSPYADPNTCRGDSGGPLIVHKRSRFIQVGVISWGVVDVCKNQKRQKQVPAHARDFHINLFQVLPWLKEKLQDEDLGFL
Sequence (Q91132 23-649 partner limits assumed): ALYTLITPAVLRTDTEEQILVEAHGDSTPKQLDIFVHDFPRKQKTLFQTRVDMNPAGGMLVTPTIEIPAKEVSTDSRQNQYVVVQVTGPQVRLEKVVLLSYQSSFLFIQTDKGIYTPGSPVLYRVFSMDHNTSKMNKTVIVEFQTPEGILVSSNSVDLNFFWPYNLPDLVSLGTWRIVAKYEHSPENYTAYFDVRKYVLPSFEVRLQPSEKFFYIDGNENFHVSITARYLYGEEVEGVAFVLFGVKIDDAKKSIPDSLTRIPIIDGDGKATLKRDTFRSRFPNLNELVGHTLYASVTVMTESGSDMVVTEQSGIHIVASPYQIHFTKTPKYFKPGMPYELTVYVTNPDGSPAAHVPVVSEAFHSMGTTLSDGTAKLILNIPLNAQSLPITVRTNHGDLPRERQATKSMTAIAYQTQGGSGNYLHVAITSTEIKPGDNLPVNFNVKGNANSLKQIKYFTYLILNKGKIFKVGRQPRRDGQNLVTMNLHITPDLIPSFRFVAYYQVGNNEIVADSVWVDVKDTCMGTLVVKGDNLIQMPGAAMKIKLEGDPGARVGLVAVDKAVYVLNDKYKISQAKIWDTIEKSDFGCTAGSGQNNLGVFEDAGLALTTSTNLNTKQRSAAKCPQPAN
Sequence (Q91132 733-984 partner limits assumed): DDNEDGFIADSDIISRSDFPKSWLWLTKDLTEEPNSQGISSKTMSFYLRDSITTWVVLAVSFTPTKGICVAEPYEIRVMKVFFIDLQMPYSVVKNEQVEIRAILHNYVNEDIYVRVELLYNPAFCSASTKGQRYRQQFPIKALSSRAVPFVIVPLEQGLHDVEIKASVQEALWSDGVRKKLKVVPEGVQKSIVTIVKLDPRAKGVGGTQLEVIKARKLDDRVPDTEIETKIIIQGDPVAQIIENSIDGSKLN
Sequence (Q91132 1264-1642 partner limits assumed): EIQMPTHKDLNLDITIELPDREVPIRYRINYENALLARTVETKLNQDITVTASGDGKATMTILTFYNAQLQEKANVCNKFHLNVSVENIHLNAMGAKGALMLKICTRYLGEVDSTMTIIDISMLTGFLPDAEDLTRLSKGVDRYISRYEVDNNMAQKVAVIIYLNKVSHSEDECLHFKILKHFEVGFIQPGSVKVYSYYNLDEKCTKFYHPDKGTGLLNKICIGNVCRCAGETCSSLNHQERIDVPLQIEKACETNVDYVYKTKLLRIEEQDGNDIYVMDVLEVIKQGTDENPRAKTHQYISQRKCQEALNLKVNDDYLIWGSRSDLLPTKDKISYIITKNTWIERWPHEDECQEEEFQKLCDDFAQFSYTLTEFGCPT
readout: IC50 (nM)
Answers are plain numbers, in nM.

Solved entries:
[ask] Respond only with IC50 recorded for CNC(c1nc2cc(C#N)ccc2[nH]1)(c1c(S(C)(=O)=O)cc(C)c2[nH]ccc12)C(F)(F)F (single isomer, unassigned; (+)) [16-B b) (+)]
[reply] 4740

[ask] Output measured IC50 for this item: CCOc1cc(C)c2[nH]ccc2c1C(CNC)c1nc2cc(C#N)ccc2[nH]1 (racemic) [Example 45]
[reply] 1040

Attention now turns to another entry.
[ask] Look up and report measured IC50 for this entry: CCc1cc(C)c2[nH]ccc2c1C(C)(N)c1nc2cc(C#N)ccc2[nH]1 (single isomer, unassigned; (-)) [102-C b) (−)]
[reply] 10

----------
I'd be grateful if you could share measured IC50 for these entries.
Target: UniProtKB P00751
Experiment: factor B inhibition assay of Biological Example 1
Format: biochemical
Set-up: CVF-Bb complex prepared from purified cobra venom factor (1 μM), recombinant human complement factor B; made in house; host or cells: drosophila cells (factor B); E. coli (factor D used to form the complex)
Conditions: IC50 (nM), assay of Biological Example 1 (Table 1)
Numbers only, in nM.

Please review the following examples before continuing.
[ask] Give the reported value of IC50 for this record: `Cc1cc(C)c2[nH]cc(Cl)c2c1Cc1nc2cc(C#N)ccc2[nH]1`
[reply] 270

[ask] Given `Cc1cc(CO)c2[nH]ccc2c1Cc1nc2cc(C#N)ccc2[nH]1` , respond with its IC50.
[reply] 9600

Below are 2 molecules. Give each one its IC50.
1. Cc1cc(OCC(N)=O)c(C(C)(O)c2nc3cc(C#N)ccc3[nH]2)c2cc[nH]c12 (racemic)
2. Cc1cc(C)c2[nH]ccc2c1C(O)(c1nc2cc(C#N)ccc2[nH]1)C1CC1 (stereo not shown)

[reply]
1. 430
2. 110

----------
Target: factor B (Homo sapiens, UniProt P00751)
Assay: assay of Biological Example 2.7
Assay type: binding
Parameters: made in house; host or cells: drosophila cells
Conditions: assay of Biological Example 2.7 (Table 2)
Sequence (P00751 26-764): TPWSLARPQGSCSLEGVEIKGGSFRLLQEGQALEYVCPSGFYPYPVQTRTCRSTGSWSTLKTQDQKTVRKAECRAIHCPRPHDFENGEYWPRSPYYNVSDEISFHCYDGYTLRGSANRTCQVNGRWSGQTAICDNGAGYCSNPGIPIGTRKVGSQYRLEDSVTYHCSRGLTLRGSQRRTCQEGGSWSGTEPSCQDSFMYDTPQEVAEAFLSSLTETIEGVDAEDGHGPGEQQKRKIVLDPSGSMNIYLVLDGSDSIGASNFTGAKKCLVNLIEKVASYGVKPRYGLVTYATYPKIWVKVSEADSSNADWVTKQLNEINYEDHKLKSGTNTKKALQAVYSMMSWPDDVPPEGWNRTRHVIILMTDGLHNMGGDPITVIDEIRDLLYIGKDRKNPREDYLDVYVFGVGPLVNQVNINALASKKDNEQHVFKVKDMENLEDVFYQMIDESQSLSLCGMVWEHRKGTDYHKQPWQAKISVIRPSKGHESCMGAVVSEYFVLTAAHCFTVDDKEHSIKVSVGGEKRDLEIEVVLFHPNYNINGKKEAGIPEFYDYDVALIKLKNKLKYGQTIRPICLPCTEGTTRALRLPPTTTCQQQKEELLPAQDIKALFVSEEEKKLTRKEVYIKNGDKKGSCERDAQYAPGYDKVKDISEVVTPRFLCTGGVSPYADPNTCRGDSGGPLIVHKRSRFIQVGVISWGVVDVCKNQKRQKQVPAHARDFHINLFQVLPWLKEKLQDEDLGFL
I'd be grateful if you could share measured pIC50 for these entries.
Give bare numbers, as −log10 of the molar value.

[ask] Please indicate pIC50 recorded for COc1cc(C)c2[nH]ccc2c1C1(c2nc3cc(C#N)ccc3[nH]2)CC1C(=O)O (racemic)
[reply] 6.10

[ask] Tell me its pIC50 given Cc1cc(C2CC2)c(C(OCC(=O)O)(c2nc3cc(C#N)ccc3[nH]2)C(F)(F)F)c2cc[nH]c12 (racemic) as the entry.
[reply] 7.19

[ask] Given COc1cc(C)c2[nH]ccc2c1C(C)(O)c1nc2ccc(C#N)cc2s1 (stereo not shown) , respond with its pIC50.
[reply] 6.96

// next entry
[ask] Specify measured pIC50 for COc1cc(C)c2[nH]ccc2c1C(CC(=O)O)c1nc2cc(C#N)ccc2o1 (single isomer, unassigned; (-)) [Example 148-E] .
[reply] 6.38

----------
Molecular target: factor B (Homo sapiens, UniProt P00751)
Experiment: assay of Biological Example 2.7
Assay type: binding
Design: made in house; host or cells: drosophila cells
Conditions: assay of Biological Example 2.7 (Table 2)
pIC50: −log10 of the molar value.
Reported pIC50 maps to class as: bottom end: < 6; midrange: ≥ 6 and < 7; top end: ≥ 7

Recorded results for 2 molecules are shown here.
[ask] Bin? COc1cc(C)c2[nH]ccc2c1C(CC(=O)O)c1nc2cc(C#N)ccc2[nH]1 (racemic) [Example 145-D]
[reply] top end

[ask] Could you tell me which band COc1c(F)c(C)c2[nH]ccc2c1C(C)(OC)c1nc2cc(C#N)ccc2[nH]1 (stereo not drawn) [Example 137-H] belongs to?
[reply] top end

Further cases:
[ask] Lab log: COc1cc(C)c2[nH]ccc2c1C(c1nc2cc(C#N)ccc2o1)C(C)(C)C(=O)O (racemic) [Example 158] — assign pIC50 category
[reply] bottom end

[ask] Each molecule maps to one class by pIC50. Which class for COc1cc(C)c2[nH]ccc2c1C(NCC(=O)O)(c1nc2cc(C#N)ccc2[nH]1)C(F)(F)F (racemic) [Example 140-B] ?
[reply] midrange

[ask] Which category does the recorded pIC50 put Cc1cc(C)c2[nH]ccc2c1C(O)c1nc2ccc(C#N)cc2s1 (stereo not drawn) [Example 137-O] in?
[reply] bottom end

[ask] Bin this entry: COc1cc(C)c2[nH]ccc2c1C(NCCN)(c1nc2cc(C#N)ccc2[nH]1)C(F)(F)F (racemic) [38-D b) (+)]
[reply] bottom end

[ask] State the class of the molecule shown: COc1cc(C)c2[nH]ccc2c1C(C)(CCC(=O)O)c1nc2cc(C#N)ccc2[nH]1 (racemic) [Example 155-M]
[reply] top end
